# assaySystem: Indoleamine 2,3-dioxygenase 1 (Homo sapiens)
# Sequence (P14902 whole entry, the tested form may be a part): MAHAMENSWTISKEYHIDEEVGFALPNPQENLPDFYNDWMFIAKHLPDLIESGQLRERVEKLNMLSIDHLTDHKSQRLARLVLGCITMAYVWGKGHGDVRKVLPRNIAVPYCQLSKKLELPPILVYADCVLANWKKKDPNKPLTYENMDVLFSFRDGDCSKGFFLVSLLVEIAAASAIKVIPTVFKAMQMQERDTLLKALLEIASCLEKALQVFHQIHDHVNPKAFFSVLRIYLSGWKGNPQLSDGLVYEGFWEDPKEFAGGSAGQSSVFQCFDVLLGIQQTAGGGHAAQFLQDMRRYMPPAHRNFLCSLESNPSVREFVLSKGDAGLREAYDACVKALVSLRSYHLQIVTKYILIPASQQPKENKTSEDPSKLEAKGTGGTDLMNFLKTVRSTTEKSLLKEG
# measurementProtocol: Inhibition of human IDO1 (12 to 403 aa) expressed in Escherichia coli Transetta (DE3) by nanodrop 2000c spectrophotometric analysis
# Lookup of reported pIC50 keyed by entry
Scale note: pIC50 = -log10(concentration in M).

// worked examples, pIC50 included
>>> experimentalresult("CC(=O)O[C@@H]1CCCC[C@H]1CNc1cc(Br)cc2[nH]ncc12")
5.24
>>> experimentalresult("Cn1ncc2c(NC[C@@H]3CCCC[C@H]3O)cc(Br)cc21")
4.42
>>> experimentalresult("O/N=C(\\CNc1cc(Br)cc2[nH]ncc12)c1ccc(O)cc1")
4.24

In: I am curious: what pIC50 value has been reported for "Brc1cc(NCC2CNC2)c2cn[nH]c2c1" ?
Out: 3.95
